System: U2OS
Experiment: cell viability relative to DMSO; higher = less toxic
Conditions: 72 h; 1000 nM
readout_label: cell viability (%)
Provide the reading as a plain figure in %.

Reference set (8 entries):
compound	cell viability (%)
Cc1nnc(C[C@@H]2C=C(c3ccc(Cl)cc3)c3ccccc3-n3c(C)nnc32)o1 [BET-BAY-002]	61.4
CC(C)(C)NC(=O)N[C@H](C(=O)N1C[C@H]2[C@@H]([C@H]1C(=O)NC(CC1CCC1)C(=O)C(N)=O)C2(C)C)C(C)(C)C (stereo not given in full) [boceprevir]	96.4
O=C1Nc2ccc(Cl)c3c2C1(CCCCN1CC=C(c2ccc(Cl)cc2)CC1)CCC3 (stereo not given) [DR-4485]	94.7
CC(C)(C)NC(=O)N[C@H](C(=O)N1C[C@H]2[C@@H]([C@H]1C(=O)NC(CC1CCC1)C(=O)C(N)=O)C2(C)C)C(C)(C)C (stereo not given in full) [Boceprevir]	96.1
c1cncc(CN2CCC(n3ncc4c(N5CCOCC5)nc(-c5ccc6[nH]ccc6c5)nc43)CC2)c1 [WAY-600]	89.5
NS(=O)(=O)c1ccc(-n2nc(C(F)(F)F)cc2-c2ccc(Cl)cc2)cc1 [SC-236]	102
Cn1ncc2c(N3CCOCC3)nc(-c3cccc(O)c3)nc21	90.6
Cc1nc[nH]c1CCN [4-methylhistamine]	98

INPUT: Dear colleague, please send me the reported cell viability for O=C(NCCCN1CCC2(CC1)OCc1ccccc12)[C@H]1CCCN1Cc1ccccc1 [BAN-ORL-24] when you can.
OUTPUT: 104

* * *

Here the recorded cell viability is given for each entry.
System: Calu-3
Assay: cell viability relative to DMSO; higher = less toxic
Details: 72 h; 1000 nM
Your answer should be a plain number; it is taken to be in %.

Here's what some known entries look like.
> print(dat)
                                   molecule   readout.label  data.value
1  COc1ccc(C(=O)Nc2sc3c(c2C(N)=O)CCCC3)cc1OC  cell viability        91.1
2  CC(C)(C)NCC(O)COc1cccc2[nH]c(C#N)cc12 (stereo unspecified)  cell viability        96.8
3  CCNC1=Nc2ccc(Cl)cc2C(C)(c2ccccc2)O1 (stereo unspecified)  cell viability         102

INPUT: State, in one line, measured cell viability of Cc1ccc(S(=O)(=O)NC(=O)NN2CCCCCC2)cc1 [tolazamide]
OUTPUT: 79.5

INPUT: Could you please provide reported cell viability for C=C1C[C@]23C[C@@]1(O)CC[C@H]2[C@@]12C=C[C@H](O)[C@@](C)(C(=O)O1)[C@H]2[C@@H]3C(=O)O ? Thanks!
OUTPUT: 105

INPUT: Supply recorded cell viability for COc1cc2c(cc1OC)CC(=O)N(CCCN(C)C[C@H]1Cc3cc(OC)c(OC)cc31)CC2 here.
OUTPUT: 101

* * *

Tested on: HepG2
Assay: cell viability relative to DMSO; higher = less toxic
Conditions: 72 h; 10000 nM
Catalogue of cell viability values
Just so you know, I need the unit written after the number.

INPUT: Provide measured cell viability value, entry: CCOc1ccc(-n2c([C@@H](C)N(Cc3cccnc3)C(=O)Cc3ccc(F)c(C(F)(F)F)c3)nc3ncccc3c2=O)cc1 (racemic)
OUTPUT: 93.7%

INPUT: Please supply the value of reported cell viability for the item CCNC1=Nc2ccc(Cl)cc2C(C)(c2ccccc2)O1 (configuration not stated)
OUTPUT: 95.3%

INPUT: Answer with reported cell viability of CCOC(=O)[C@H](CCc1ccccc1)N[C@@H](C)C(=O)N1CCC[C@H]1C(=O)O
OUTPUT: 109%

INPUT: Supply recorded cell viability for CCOCc1cc(OC)c(-c2ccc(C[C@H](NC(=O)c3c(F)cccc3F)C(=O)O)cc2)c(OC)c1 here.
OUTPUT: 96.6%

INPUT: Quickly give me recorded cell viability for Cc1nc(-c2ccc(OCC(C)C)c(C#N)c2)sc1C(=O)O
OUTPUT: 94.1%

INPUT: Identify the reported cell viability for the following entry. C[C@]12CCC(=O)C[C@@H]1CC[C@@H]1[C@@H]2CC[C@]2(C)C=CC[C@@H]12
OUTPUT: 100%

INPUT: Read off the recorded cell viability for NS(=O)(=O)c1ccc(-n2nc(C(F)(F)F)cc2-c2ccc(Cl)cc2)cc1
OUTPUT: 103%
